Consider the following binders; for each one, report its pKd.
Molecular target: T1, KGF (hKGF) (Homo sapiens, UniProt P21781 P21781:32-194)
T1 sequence: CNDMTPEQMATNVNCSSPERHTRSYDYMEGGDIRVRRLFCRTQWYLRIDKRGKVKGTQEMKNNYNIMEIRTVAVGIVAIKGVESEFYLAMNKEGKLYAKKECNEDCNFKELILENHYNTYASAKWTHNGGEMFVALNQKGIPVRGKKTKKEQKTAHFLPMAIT
Assay: filter; DPBS, 37 C
Settings: tags: Upstate Biotechnology; label: 32P
Expect pKd as a plain number equal to -log10 of the molar concentration.

Q: Requested read-out: pKd. Entry: 22F (ssRNA, 2'-F pyrimidines) RNA: GGGAGGACGAUGCGGCCUGAAGUACAGGCUCUAAACUCCAAGCGCGACCGUCCGCCAGACGACUCGCCCGA
Result: 8.56

Q: Item 5F (ssRNA, 2'-F pyrimidines) RNA: GGGAGGACGAUGCGGCGUCCCGAGUCACGCUGUCCUGAUAACCUUCUCUGUGCCCAGACGACUCGCCCGA has what recorded pKd?
Result: 8.60

Q: What does the data say about its pKd? Entry: 55F (ssRNA, 2'-F pyrimidines) RNA: GGGAGGACGAUGCGGUCCGUCAUAACGGCCAUAAACUGCGAAUACUCCCUGGCCCAGACGACUCGCCCGA
Result: 8.60

Source listed as patent US20030180744.
